Tested on: hepatitis C replicon
method_description: hepatitis C replicon EC50
Assay type: cell-based
measurement_parameters: Hepatitis C virus; Table 3; hepatitis C replicon; read-out: EC50
measurement_label: EC50

1. CC(C)(C)OC(=O)N[C@H]1CCCCC/C=C\[C@@H]2C[C@@]2(C(=O)NS(=O)(=O)C2CC2)NC(=O)[C@@H]2C[C@@H](Oc3nc4ccc(Cl)cc4s3)CN2C1=O = 10 to 100 nM
2. Cc1ccc2nc(O[C@@H]3C[C@H]4C(=O)N[C@]5(C(=O)NS(=O)(=O)C6CC6)C[C@H]5/C=C\CCCCC[C@H](NC(=O)OC(C)(C)C)C(=O)N4C3)oc2c1 = 10 to 100 nM
3. Cc1ccc2c(c1)nc(O[C@@H]1C[C@H]3C(=O)N[C@]4(C(=O)NS(=O)(=O)N(C)C)C[C@H]4/C=C\CCCCC[C@H](NC(=O)OC(C)(C)C)C(=O)N3C1)n2C(C)C = < 10 nM
4. CCn1c(O[C@@H]2C[C@H]3C(=O)N[C@]4(C(=O)NS(=O)(=O)C5CC5)C[C@H]4/C=C\CCCCC[C@H](NC(=O)OC(C)(C)C)C(=O)N3C2)nc2ccccc21 = < 10 nM

Turning now to a further record.
Tell me the measured EC50 of CC(C)(C)OC(=O)N[C@H]1CCCCC/C=C\[C@@H]2C[C@@]2(C(=O)NS(=O)(=O)C2CC2)NC(=O)[C@@H]2C[C@@H](Oc3nc4ccccc4o3)CN2C1=O , please.
10 to 100 nM
